The measured values listed here are drawn from PubChem BioAssay (Tox21).

biological target: Glucocorticoid receptor (Homo sapiens) (UniProt P04150); assay: qHTS assay to identify small molecule antagonists of the glucocorticoid receptor (GR) signaling pathway (AID 720692); settings: GR-bla HeLa, beta-lactamase FRET ratio, dexamethasone-stimulated, 18 h; series mostly up to 58.5 µM; also: potency is read from the fitted curve at half-maximal effect
Sequence (P04150 whole entry, looked up): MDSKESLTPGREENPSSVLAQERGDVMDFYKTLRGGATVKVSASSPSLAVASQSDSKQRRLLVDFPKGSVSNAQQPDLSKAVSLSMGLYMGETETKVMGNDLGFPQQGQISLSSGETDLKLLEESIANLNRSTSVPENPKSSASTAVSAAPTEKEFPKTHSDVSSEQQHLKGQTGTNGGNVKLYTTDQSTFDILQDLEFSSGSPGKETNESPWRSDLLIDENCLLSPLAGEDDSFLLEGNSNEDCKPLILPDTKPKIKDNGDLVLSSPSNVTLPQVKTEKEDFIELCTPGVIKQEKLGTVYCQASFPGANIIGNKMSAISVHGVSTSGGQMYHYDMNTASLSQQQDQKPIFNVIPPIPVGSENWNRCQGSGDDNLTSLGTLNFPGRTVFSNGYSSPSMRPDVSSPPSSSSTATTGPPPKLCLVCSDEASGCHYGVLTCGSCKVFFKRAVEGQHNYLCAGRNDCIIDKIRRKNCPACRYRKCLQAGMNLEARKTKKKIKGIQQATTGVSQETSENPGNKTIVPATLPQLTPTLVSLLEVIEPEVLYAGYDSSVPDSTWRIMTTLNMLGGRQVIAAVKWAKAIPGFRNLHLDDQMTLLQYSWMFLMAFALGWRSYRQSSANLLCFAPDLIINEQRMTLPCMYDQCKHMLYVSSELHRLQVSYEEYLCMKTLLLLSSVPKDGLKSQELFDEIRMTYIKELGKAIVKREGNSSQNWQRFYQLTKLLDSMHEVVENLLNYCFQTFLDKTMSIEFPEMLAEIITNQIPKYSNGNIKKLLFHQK
Results filed as inconclusive are left out. Active and inactive are the calls of the source. Calls follow the shape of the dose curve; as a rule, active = well fitted inhibition curve with a large enough effect in the signal ratio in the repeat runs (not every such curve was filed as active); inconclusive = weak or mixed curves, or effect the other way; inactive = no such curve, though single readings can be large or run the other way; the % refers to the signal ratio.
readout: Potency

Would you please look over these solved cases?
{"compound": "CC(c1ccc(O)cc1)c1ccc(O)cc1", "Potency": "inactive"}
{"compound": "CCOP(=S)(OCC)OC(Cl)C(Cl)(Cl)Cl (stereo not drawn)", "Potency": "inactive"}
{"compound": "CC(C)CC(C)N (stereo not drawn)", "Potency": "inactive"}
{"compound": "O=C(CCl)C(Cl)Cl", "Potency": "35 µM (active)"}
{"compound": "C[C@@H]1O[C@@H](O[C@@H]2C=C3CC[C@@H]4[C@H](CC[C@]5(C)[C@@H](c6ccc(=O)oc6)CC[C@]45O)[C@@]3(C)CC2)[C@H](O)[C@H](O)[C@H]1O", "Potency": "0.0574 µM (active)"}

Each of the following entries comes with a recorded value; kindly state Potency for each.
1. O=C(CBr)c1ccc(O)cc1
2. CC(C)CCCCCCCOP(=O)(Oc1ccccc1)Oc1ccccc1
3. C=CC(=O)OCCCCOC(=O)C=C
4. O=c1ssc(Cl)c1Cl
5. C[C@H]1O[C@@H](O[C@H]2[C@@H](O)C[C@H](O[C@H]3[C@@H](O)C[C@H](O[C@H]4CC[C@@]5(C)[C@H](CC[C@@H]6[C@@H]5CC[C@]5(C)[C@@H](C7=CC(=O)OC7)CC[C@]65O)C4)O[C@@H]3C)O[C@@H]2C)C[C@H](O)[C@@H]1O

inactive
inactive
24.5 µM (active)
43.6 µM (active)
0.425 µM (active)

Each of the following entries comes with a recorded value; kindly state Potency for each.
1. CC(C)CCCCCOC(=O)c1ccccc1C(=O)OCCCCCC(C)C
2. CCCN(CCC)CCc1c[nH]c2ccccc12
3. N#CCCSCCC#N
4. N#CNC#N
5. CC(=O)O[C@H]1CC[C@@]2(C)C(=CC[C@@H]3[C@@H]2CC[C@]2(C)C(=O)CC[C@@H]32)C1

1: inactive; 2: inactive; 3: inactive; 4: inactive; 5: inactive

Each of the following entries comes with a recorded value; kindly state Potency for each.
1. Cc1c(Cl)c(=O)oc2cc(OP(=O)(OCCCl)OCCCl)ccc12
2. FC(F)(F)c1cccc(C2=CCN(CCc3ccc4ccccc4c3)CC2)c1
3. Nc1ccccc1C(=O)Oc1ccc2ccccc2c1

["inactive", "inactive", "inactive"]

Each of the following entries comes with a recorded value; kindly state Potency for each.
1. Cc1cc(C(C)(C)c2cc(C)c(O)c(C)c2)cc(C)c1O
2. O=C(O)C1C2CCC(O2)C1C(=O)O (stereo not drawn)
3. CC(C)OC(=O)C(O)(c1ccc(Cl)cc1)c1ccc(Cl)cc1
4. CN(C)[C@@H]1C(=O)C(C(N)=O)=C(O)[C@@]2(O)C(=O)C3=C(O)c4c(O)ccc(Cl)c4[C@@](C)(O)[C@H]3C[C@@H]12
5. O=C(NC(=O)c1c(F)cccc1F)Nc1cc(Cl)c(OC(F)(F)C(F)F)c(Cl)c1

["4.74 µM (active)", "inactive", "30.9 µM (active)", "inactive", "inactive"]
